testSystem: recombinant N-terminal PMS2 (residues 1-365) (Homo sapiens (Human))
experiment: Fluorescence polarisation assay for PMS2
cond: FP probe displacement; 10 nM N-terminal PMS2, 5 nM probe compound, read after 1 hour
So I've got a bunch of compounds here, and I need their IC50 values.

# example entries with known answers
compound | testSystem | valueReported
Cc1c(O)cc(O)c(C(=O)N2Cc3ccccc3C(CO)C2)c1OCc1ccccc1 (centres unmarked) [Example 66] | recombinant N-terminal PMS2 (residues 1-365) (Homo sapiens (Human)) | 1000 to 10000 nM
Cc1c(O)cc(O)c(C(=O)N2CCc3cccnc3C2)c1OCc1ccccc1 [Example 53] | recombinant N-terminal PMS2 (residues 1-365) (Homo sapiens (Human)) | 1000 to 10000 nM
COc1cccc2c1CN(C(=O)c1c(O)cc(O)cc1OCc1ccccc1)C2 [Example 19] | recombinant N-terminal PMS2 (residues 1-365) (Homo sapiens (Human)) | < 1000 nM
Cc1c(O)cc(O)c(C(=O)N2Cc3cccc(NC4COC4)c3C2)c1OCc1ccccc1 [Example 80] | recombinant N-terminal PMS2 (residues 1-365) (Homo sapiens (Human)) | < 1000 nM
Cc1c(O)cc(O)c(C(=O)N2CCc3cc(C(=O)N(C)C)ccc3C2)c1OCc1ccccc1 [Example 78] | recombinant N-terminal PMS2 (residues 1-365) (Homo sapiens (Human)) | < 1000 nM
Cc1c(O)cc(O)c(C(=O)N2Cc3cccc(OC4CCOC4)c3C2)c1OCc1ccccc1 (centres unmarked) [Example 88] | recombinant N-terminal PMS2 (residues 1-365) (Homo sapiens (Human)) | < 1000 nM
COC(=O)c1ccc2c(c1)CN(C(=O)c1c(O)cc(O)cc1OCc1ccccc1)C2 [Example 24] | recombinant N-terminal PMS2 (residues 1-365) (Homo sapiens (Human)) | < 1000 nM
Cc1cccc(COc2cc(O)cc(O)c2C(=O)N2Cc3cccnc3C2)c1 [Example 32] | recombinant N-terminal PMS2 (residues 1-365) (Homo sapiens (Human)) | < 1000 nM

Please give IC50, item by item, for the list that follows.
1. CCc1c(O)cc(O)c(C(=O)N2CCCC2)c1OCc1ccccc1 [Example 11]
2. Cc1c(O)cc(O)c(C(=O)N2CCc3cnccc3C2)c1OCc1ccccc1 [Example 43]
3. Cc1c(O)cc(O)c(C(=O)N2CCc3ccc(CN(C)C)cc3C2)c1OCc1ccccc1 [Example 60]
4. Cc1c(O)cc(O)c(C(=O)N2Cc3cccc(C#N)c3C2)c1OCc1ccccc1 [Example 82]

1. > 10000 nM
2. 1000 to 10000 nM
3. < 1000 nM
4. < 1000 nM

Provide IC50 for all items below, preserving their order.
1. O=C(c1c(O)cc(O)cc1OC1CCCC1)N1CCCC1 [Example 2]
2. COc1cc2c(cc1OC)CN(C(=O)c1c(O)cc(O)cc1OC(C)c1ccccc1)C2 (centres unmarked) [Example 29]
3. O=C(c1c(O)cc(O)cc1OCc1ccccc1)N1Cc2ccccc2C1 [Example 4]
4. Cc1c(O)cc(O)c(C(=O)N2Cc3ccc(CN4CCN(C)CC4)cc3C2)c1OCC1CCCCC1 [Example 94]
5. Cc1c(O)cc(O)c(C(=O)N2Cc3cccc(C(=O)N(C)C)c3C2)c1OCc1ccccc1 [Example 85]

["> 10000 nM", "< 1000 nM", "< 1000 nM", "< 1000 nM", "< 1000 nM"]

---

Give IC50 for every item shown.
testSystem: recombinant N-terminal PMS2 (residues 1-365) (Homo sapiens (Human), UniProt P54278)
Sequence (P54278 1-365): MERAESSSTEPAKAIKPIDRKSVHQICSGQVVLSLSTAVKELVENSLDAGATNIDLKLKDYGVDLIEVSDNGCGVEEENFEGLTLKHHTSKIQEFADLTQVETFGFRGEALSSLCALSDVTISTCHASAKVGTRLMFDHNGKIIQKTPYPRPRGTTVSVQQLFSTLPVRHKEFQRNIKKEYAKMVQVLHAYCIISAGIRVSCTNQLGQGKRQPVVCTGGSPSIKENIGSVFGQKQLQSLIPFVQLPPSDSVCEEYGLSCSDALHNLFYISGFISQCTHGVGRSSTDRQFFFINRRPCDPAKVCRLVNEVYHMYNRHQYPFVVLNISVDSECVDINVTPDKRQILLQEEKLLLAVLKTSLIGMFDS
experiment: Fluorescence polarisation assay for PMS2
cond: FP probe displacement; 10 nM N-terminal PMS2, 5 nM probe compound, read after 1 hour

compound | valueType | valueReported
CNC(=O)c1cccc2c1CN(C(=O)c1c(O)cc(O)c(C)c1OCc1ccccc1)C2 | IC50 | 1 to 10 µM
COc1c(C)c(O)cc(O)c1C(=O)N1Cc2ccc(CN3CCN(C)CC3)cc2C1 | IC50 | < 1 µM
O=C(c1c(O)cc(O)cc1OCc1ccccc1)N1CCc2ccccc21 | IC50 | 1 to 10 µM
O=C(c1c(O)cc(O)cc1OCc1ccccc1)N1CC[C@@H](O)C1 | IC50 | > 10 µM
Cc1c(O)cc(O)c(C(=O)N2Cc3cccc(CN4CCN(C)CC4)c3C2)c1OCc1ccccc1 | IC50 | < 1 µM
Cc1c(O)cc(O)c(C(=O)N2CCc3ccc(C(=O)N(C)C)cc3C2)c1OCc1ccccc1 | IC50 | < 1 µM

Hey, can you go through the list below and give me IC50 for every item?
1. Cc1c(O)cc(O)c(C(=O)N2Cc3cccnc3C2)c1OCc1ccccn1
2. Cc1c(O)cc(O)c(C(=O)N2Cc3ccccc3C2)c1OCc1ccccn1
3. O=C(c1c(O)cc(O)cc1OCc1ccccn1)N1Cc2cccnc2C1
4. O=C(c1c(O)cc(O)cc1OCc1cc[nH]n1)N1CCCC1
5. O=C(c1c(O)cc(O)cc1OCc1ncccn1)N1CCCC1
6. COc1ccc2c(c1)CN(C(=O)c1c(O)cc(O)c(C)c1OCc1ccccc1)CC2

["1 to 10 µM", "1 to 10 µM", "1 to 10 µM", "> 10 µM", "> 10 µM", "< 1 µM"]

Required: IC50, one value per compound below.
1. Cc1c(O)cc(O)c(C(=O)N2Cc3ccc(CN4CCN(C)CC4)cc3C2)c1OCc1ccccc1
2. CCOc1c(C)c(O)cc(O)c1C(=O)N1Cc2ccc(CN3CCN(C)CC3)cc2C1
3. Cc1c(O)cc(O)c(C(=O)N2Cc3ccc(CN(C)C)cc3C2)c1OCc1ccccc1
4. Cc1c(O)cc(O)c(C(=O)N2CCc3ncccc3C2)c1OCc1ccccc1
5. O=C(c1c(O)cc(O)cc1OCc1ccccc1)N1CCCc2ccccc21
6. Cc1c(O)cc(O)c(C(=O)N2Cc3cccc(CO)c3C2)c1OCc1ccccc1
7. Cc1c(O)cc(O)c(C(=O)N2Cc3ccccc3C[C@H]2CO)c1OCc1ccccc1
8. CC(Oc1cc(O)cc(O)c1C(=O)N1CCCC1)c1ccccc1 (single isomer, unassigned) [Example 14]

["< 1 µM", "< 1 µM", "< 1 µM", "1 to 10 µM", "1 to 10 µM", "< 1 µM", "1 to 10 µM", "> 10 µM"]

Give IC50 for all compounds that follow.
1. O=C(c1c(O)cc(O)cc1OCc1ccccc1)N1CC[C@H](O)C1
2. CNC(=O)c1ccc2c(c1)CN(C(=O)c1c(O)cc(O)c(C)c1OCc1ccccc1)C2
3. Cc1c(O)cc(O)c(C(=O)N2Cc3cccc(OCc4cncnc4)c3C2)c1OCc1ccccc1
4. Cc1c(O)cc(O)c(C(=O)N2CCCC2)c1OCc1ccccc1
5. Cc1c(O)cc(O)c(C(=O)N2CCc3ccccc3C2CO)c1OCc1ccccc1 (centres unmarked)

["> 10 µM", "< 1 µM", "< 1 µM", "1 to 10 µM", "> 10 µM"]

---

testSystem: recombinant N-terminal MLH1 (residues 15-340) (Homo sapiens (Human), UniProt P40692)
Sequence (P40692 15-340): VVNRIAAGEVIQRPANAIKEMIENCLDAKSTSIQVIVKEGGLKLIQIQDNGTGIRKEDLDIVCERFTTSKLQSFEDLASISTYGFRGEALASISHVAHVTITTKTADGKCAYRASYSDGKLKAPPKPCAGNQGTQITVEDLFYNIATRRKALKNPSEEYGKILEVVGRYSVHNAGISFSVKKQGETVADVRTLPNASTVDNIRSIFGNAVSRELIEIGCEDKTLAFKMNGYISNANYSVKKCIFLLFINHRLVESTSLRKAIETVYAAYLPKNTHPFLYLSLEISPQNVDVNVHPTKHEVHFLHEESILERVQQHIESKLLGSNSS
experiment: Fluorescence polarisation assay for MLH1 (protocol for Examples 64, 76, 90 and 95)
cond: FP probe displacement, 100 nM N-terminal MLH1, 5 nM probe compound, non-binding surface plate, read immediately
valueType: IC50

Solved cases below.
testSmiles | IC50
Cc1c(O)cc(O)c(C(=O)N2Cc3cccc(CN4CCOCC4)c3C2)c1OCc1ccccc1 | > 10 µM
Cc1c(O)cc(O)c(C(=O)N2Cc3ccccc3C[C@@H]2CO)c1OCc1ccccc1 | > 10 µM
Cc1c(O)cc(O)c(C(=O)N2Cc3cccc(OCc4cncnc4)c3C2)c1OCc1ccccc1 | > 10 µM

# evaluate next
Which value of IC50 has been reported for Cc1c(O)cc(O)c(C(=O)N2Cc3ccc(CN4CCN(C)CC4)cc3C2)c1OCC1CC1 in the records?
> 10 µM

---

Would you kindly list pIC50 for each of these compounds?
testSystem: recombinant N-terminal MLH1 (residues 15-340) (Homo sapiens (Human), UniProt P40692)
experiment: Fluorescence polarisation assay for MLH1 (protocol for all Examples except Examples 64, 76, 90 and 95)
Type: binding
cond: FP probe displacement; 100 nM N-terminal MLH1, 5 nM probe compound, read after 15 minutes; all Examples except 64, 76, 90 and 95
pIC50: −log10 of the molar value.

compound | pIC50
COc1c(C)c(O)cc(O)c1C(=O)N1Cc2ccc(CN3CCN(C)CC3)cc2C1 | < 5.00
Cc1c(O)cc(O)c(C(=O)N2Cc3cccc(NC4CCOC4)c3C2)c1OCc1ccccc1 (stereo not drawn) | < 5.00
Cc1cccc(COc2c(C)c(O)cc(O)c2C(=O)N2Cc3cccnc3C2)c1 | < 5.00
Cc1c(O)cc(O)c(C(=O)N2CCc3ccccc32)c1OCc1ccccc1 | < 5.00
C=Cc1cccc2c1CN(C(=O)c1c(O)cc(O)c(C)c1OCc1ccccc1)C2 | < 5.00

// for each compound below, give its pIC50
1. O=C(c1c(O)cc(O)cc1OCc1ccccn1)N1Cc2ccccc2C1
2. Cc1c(O)cc(O)c(C(=O)N2CCc3ccccc3C2)c1OCc1ccccn1
3. O=C(c1c(O)cc(O)cc1OCc1c[nH]nn1)N1CCCC1
4. CN1CCN(Cc2ccc3c(c2)CN(C(=O)c2c(O)cc(O)cc2OCc2ccccc2)C3)CC1

1: 5.00 to 6.00; 2: < 5.00; 3: < 5.00; 4: 5.00 to 6.00
